The reported measurements were obtained from patent US7449463B2.

Test system: Respiratory Syncytial Virus
TEST_PROTOCOL: microbe, parasite or virus in culture
Type: cell-based
PROTOCOL_CONDITIONS: pEC50 (−log of EC50 when expressed in molar units), protection against RSV cytopathology
Text: In vitro Screening for Activity against Respiratory Syncytial Virus. The percent protection against cytopathology caused by viruses (antiviral activity or EC50) achieved by tested compounds and their cytotoxicity (CC50) are both calculated from dose-response curves. The selectivity of the antiviral effect is represented by the selectivity index (SI), calculated by dividing the CC50 (cytotoxic dose for 50% of the cells) by the EC50 (antiviral activity for 50% of the cells). […]
EXPERIMENTAL_ENDPOINT: Activity

> print(dat)
                                    molecule  endpoint.value
 1  Cc1cccc(NCc2ccc3c(c2)nc(NCCCN2CCOCC2)n3C2CCCc3nc(C)c(C)nc32)c1CO (centres unmarked)               7
 2  Cc1cccc(NCc2ccc3nc(NCCCN4CCOCC4)n(Cc4nc(C)c(C)nc4C)c3c2)c1CO             7.1
 3  Cc1cccc(Cn2c(NCCCN3CCOCC3)nc3ccc(CNc4ccccc4CCO)cc32)n1             5.5
 4  C#Cc1ccc(CCO)c(NCc2ccc3nc(NCCCN4CCOCC4)n(Cc4cccc5cccnc45)c3c2)c1             8.3
 5  C#Cc1ccc(CCO)c(NCc2ccc3nc(NCCCN4CCOCC4)n(Cc4cccc5c4ncn5C)c3c2)c1             8.1
 6  Cc1cccc(NCc2ccc3nc(NCCCN4CCOCC4)n(Cc4cccc5c4ncn5C)c3c2)c1             6.9
 7  Cc1nc2c(nc1C)C(n1c(NCCCN3CCOCC3)nc3cc(CNc4ccccc4CCO)ccc31)CCC2 (centres unmarked)             7.1
 8  Cn1cnc2c(Cn3c(NCCCN4CCOCC4)nc4ccc(CNc5ccccc5CCC(N)=O)cc43)cccc21             7.9
 9  Cn1cnc2c(Cn3c(NCCCN4CCOCC4)nc4ccc(CNc5ccccc5CCO)cc43)cccc21             7.9
10  Cc1cccc(Cn2c(NCCCN3CCOCC3)nc3ccc(CNc4cccc(C)c4CO)cc32)n1             4.9
11  Cc1nc(C)c(Cn2c(NCCCN3CCOCC3)nc3ccc(CNc4cccc(CCO)c4)cc32)nc1C             6.9
12  Cc1ccc(CCO)c(NCc2ccc3nc(NCCCN4CCOCC4)n(Cc4cccc(C)n4)c3c2)c1             7.2
13  Cc1nc2c(nc1C)C(n1c(NCCCN3CCOCC3)nc3cc(CNc4cc(Cl)cc(Cl)c4)ccc31)CCC2 (centres unmarked)             5.7
14  Cc1cccc(Cn2c(NCCCN3CCOCC3)nc3ccc(CNc4cccc(C)c4CCO)cc32)n1             5.5

---

Listing: melting point of selected compounds
EXPERIMENTAL_ENDPOINT: melting point (°C)

> print(dat)
                                   compound  experimental.endpoint  endpoint.value
1  Cc1cc(C)c2nc(N(CC(C)N3CCOCC3)C3CCNCC3)n(Cc3nc(C)ccc3O)c2c1 (stereo not shown)          melting point             223
2  Cc1ccc(O)c(Cn2c(NCCCN3CCOCC3)nc3ccc(Cc4c(C)cc(NCCO)cc4C)cc32)n1          melting point             162
3  Cc1ccc(CCCO)c(NCc2ccc3nc(NCCCN4CCOCC4)n(Cc4nc(C)c(C)nc4C)c3c2)c1          melting point             120
4  Cc1cc(C)c2nc(N(CCN3CCOCC3)C3CCNCC3)n(Cc3nc(C)ccc3O)c2c1          melting point             237
